meta.source: ChEMBL document CHEMBL1201862

# System: BT-549
# EXPERIMENT DESCRIPTION: NCI tumour cell line growth inhibition, 48 h
Activity calls are given as the source filed them. No stated cut-off is given here; in the data, active = GI50 up to about 1.1 µM and inactive = higher.
PROPERTY NAME: GI50

Note GI50 for the compound shown: Cc1nn(C(=O)Cc2ccccc2)c2c1C(c1ccc(/C=C/c3ccccc3)cc1)SC(=N)N2 (stereo not given) > 100 µM (inactive)

Note GI50 for the compound shown: CCOC(=O)c1nc2ccc(C(F)(F)F)cc2nc1NCc1ccc(OC)cc1 60.4 µM (inactive)

Note GI50 for the compound shown: Cc1ccc(/C=N/NC2=NCCN2)s1 23.3 µM (inactive)

Note GI50 for the compound shown: O=CC1C(Cl)=Nc2nc3ccccc3n2C1c1ccccc1 (stereo not given) 15.2 µM (inactive)

Note GI50 for the compound shown: Cc1ccc2c(O)cc(-c3cc(C)sc3C)nc2n1 8.87 µM (inactive)

Note GI50 for the compound shown: CC(C)(C)c1cc(C2COC(c3cc(C(C)(C)C)c(O)c(C(C)(C)C)c3)CO2)cc(C(C)(C)C)c1O (stereo not given) > 100 µM (inactive)

Note GI50 for the compound shown: C=C(C(=O)OC)c1cc2ccccc2n1S(=O)(=O)c1ccccc1 1.73 µM (inactive)

Note GI50 for the compound shown: CCOC(=O)C(C)(C)Oc1ccc(Cl)cc1 [CLOFIBRATE] > 1000 µM (inactive)

Note GI50 for the compound shown: O=S(=O)(O)C(Cc1nc2ccccc2[nH]1)S(=O)(=O)OCCC1S(=O)(=O)OCCOS1(=O)=O (stereo not given) > 100 µM (inactive)

Note GI50 for the compound shown: O=C(NNC(=S)Nc1ccc(Cl)cc1)C12CC3CC(CC(C3)C1)C2 11.6 µM (inactive)

Note GI50 for the compound shown: CC12CC3c4ccccc4CN1C3(c1ccccc1)OC2=O (stereo not given) > 100 µM (inactive)

Note GI50 for the compound shown: COc1ccc([C@@]23OC[C@@H]4[C@@H](OC[C@@H]42)c2cc(OC)c(OC)cc23)cc1OC > 100 µM (inactive)

Note GI50 for the compound shown: c1ccc(C2SCc3nc4cc5ccccc5cc4n32)cc1 (stereo not given) > 100 µM (inactive)

Note GI50 for the compound shown: C[Si](C)(C)c1ccc(-c2c3ccc(-c4cc(Br)cc(Br)c4)nc3nc3nc(-c4cc(Br)cc(Br)c4)ccc23)cc1 > 100 µM (inactive)

Note GI50 for the compound shown: NN/C(=N\S(=O)(=O)c1cc2ccccc2s1)Nc1ccc(Cl)cc1 18.9 µM (inactive)

---

# Tested on: RPMI-8226
# EXPERIMENT DESCRIPTION: NCI tumour cell line growth inhibition, 48 h
Active and inactive are the calls of the source. No stated cut-off is given here; in the data, active = GI50 up to about 1.1 µM and inactive = higher.
Select the matching outcome among label 1 for active, label 0 for inactive

Record request — test call for CCOC(=O)CCC(C(=O)OCC)n1nnc2ccc(Nc3c(C)[n+]([O-])c4cc(Cl)ccc4[n+]3[O-])cc21 (stereo not drawn) label 0

Record request — test call for N#Cc1cn(-c2c3ccccc3nc3ccccc23)c(=O)[nH]c1=O label 0

Record request — test call for CC(C)(C)C1=CC(=N/N=c2\scc(-c3ccccc3)n2-c2ccccc2)C=C(C(C)(C)C)C1=O label 0

Record request — test call for COc1ccc(C(=O)C2CCC(C(=O)O)C2)cc1 (stereo not drawn) label 0

Record request — test call for CC1OC(OC2C(CO)OC(O[C@H]3CC[C@@]4(C)C(=CC[C@H]5[C@@H]6C[C@@H]7O[C@](O)(CC[C@H](C)COC8OC(CO)C(O)C(O)C8O)[C@@H](C)[C@@H]7[C@@]6(C)CC[C@@H]54)C3)C(OC3OC(C)C(O)C(O)C3O)C2O)C(O)C(O)C1O (stereo partly drawn) label 0

Record request — test call for CC(=O)Nc1ccc2c(c1)/C(=C\c1ccc([N+](C)(C)C)cc1)c1ccccc1-2 label 0

Record request — test call for COC(=O)C1=CS/C(=C2\S[C@@H]3[C@H](S2)[C@H]2C=C[C@@H]3C2)S1 label 0

Record request — test call for Cc1ccc(/N=N/C(=N/NC(=O)c2cc(Cl)ccc2O)c2ccc(N(CCC#N)CCC#N)cc2C)cc1 label 0

Record request — test call for Cc1ccnc2nc(-c3cccc4ccccc34)cc(O)c12 label 1

Record request — test call for Cc1ccc(S(=O)(=O)c2c3nc4ccccc4nc3n3c2[nH]c2ccccc23)cc1 label 0

Record request — test call for [O-][n+]1ccccc1Sc1nc(Sc2cccc[n+]2[O-])nc(Sc2cccc[n+]2[O-])n1 label 1

Record request — test call for O=C(O)CCSC(=O)Nc1cccc2ccccc12 label 0

Record request — test call for CC(=O)c1cc2c(s1)C(=O)c1sccc1C2=O label 1
